# test.protocol: Biological tissue distribution in dogs after intravenous injection
# Type: in vivo, dog (Female Mongrel)
# measurement.conditions: 30 min, i.v. 100 μCi, Blood
observation.type: tissue concentration (Mean + S.E.M.) (% kg dose/g)
Give bare numbers, in % kg dose/g.

// returns reported tissue concentration (Mean + S.E.M.) for input N=C(N)NCc1ccc(N)c([125I])c1
0.03

---

# test.protocol: Biological tissue distribution in dogs after intravenous injection
# Format: in vivo, dog (Female Mongrel)
# measurement.conditions: 2 hours, i.v. 100 μCi, Blood
observation.type: tissue concentration (Mean + S.E.M.) (% kg dose/g)
Answers are plain numbers, in % kg dose/g.

// returns reported tissue concentration (Mean + S.E.M.) for input N=C(N)NCc1ccc(N)c([125I])c1
0.03
